- TESTED ON: Protein kinase C beta type (Homo sapiens, UniProt P05771)
- Sequence (P05771 whole entry): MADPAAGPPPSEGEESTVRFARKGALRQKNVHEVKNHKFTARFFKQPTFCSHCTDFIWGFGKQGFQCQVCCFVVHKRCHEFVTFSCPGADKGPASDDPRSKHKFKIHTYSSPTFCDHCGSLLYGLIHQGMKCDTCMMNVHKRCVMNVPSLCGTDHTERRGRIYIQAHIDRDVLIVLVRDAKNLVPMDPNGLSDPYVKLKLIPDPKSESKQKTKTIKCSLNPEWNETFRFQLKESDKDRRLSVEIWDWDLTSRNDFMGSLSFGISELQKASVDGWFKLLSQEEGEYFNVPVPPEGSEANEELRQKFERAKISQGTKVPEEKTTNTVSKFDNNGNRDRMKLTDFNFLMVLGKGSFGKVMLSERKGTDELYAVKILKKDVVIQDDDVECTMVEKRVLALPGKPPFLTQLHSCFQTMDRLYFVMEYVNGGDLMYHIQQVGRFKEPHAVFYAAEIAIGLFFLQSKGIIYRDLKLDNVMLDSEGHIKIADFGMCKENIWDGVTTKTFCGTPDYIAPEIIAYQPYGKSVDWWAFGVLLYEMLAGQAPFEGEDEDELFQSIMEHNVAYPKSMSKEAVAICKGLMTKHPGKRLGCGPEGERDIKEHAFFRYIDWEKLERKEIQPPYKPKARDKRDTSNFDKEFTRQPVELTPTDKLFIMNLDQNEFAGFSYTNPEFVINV
- EXPERIMENT: Inhibition of PKCbeta2 (unknown origin)
- EXPERIMENTAL CONTEXT: read-out: IC50
Item-by-item account of IC50
Give the value, in units of nM, as a plain number.

In the examples that follow, each entry is paired with its recorded IC50.
> print(dat)
                                  structure  unit.of.measurement  reported.value
1  O=C1NC(=O)C(c2c3n(c4ccccc24)C[C@H](CO)C3)=C1Nc1ccccc1                   nM              14
2  CCN(C)C[C@H]1Cc2c(C3=C(Nc4ccccc4)C(=O)NC3=O)c3ccccc3n2C1                   nM               5
3  CCN(CC)C[C@H]1Cc2c(C3=C(Nc4ccccc4)C(=O)NC3=O)c3ccccc3n2C1                   nM              32
4  CN(C)C[C@@H]1CCc2c(C3=C(Nc4ccccc4)C(=O)NC3=O)c3ccccc3n2C1                   nM               6

Challenge: Request: IC50, test system Protein kinase C beta type (Homo sapiens, UniProt P05771), entry CN(C)C[C@@H]1CCn2c(c(C3=C(Nc4ccccc4)C(=O)NC3=O)c3ccccc32)C1
Response given: 25

Challenge: Request: IC50, test system Protein kinase C beta type (Homo sapiens, UniProt P05771), entry CC(=O)NC[C@H]1Cc2c(C3=C(Nc4ccccc4)C(=O)NC3=O)c3ccccc3n2C1
Response given: 7.9

Challenge: Request: IC50, test system Protein kinase C beta type (Homo sapiens, UniProt P05771), entry CN(C)C[C@H]1CCn2c(c(C3=C(Nc4ccccc4)C(=O)NC3=O)c3ccccc32)C1
Response given: 2

Challenge: Request: IC50, test system Protein kinase C beta type (Homo sapiens, UniProt P05771), entry CCNC[C@H]1Cc2c(C3=C(Nc4ccccc4)C(=O)NC3=O)c3ccccc3n2C1
Response given: 2.4

Challenge: Request: IC50, test system Protein kinase C beta type (Homo sapiens, UniProt P05771), entry NC[C@H]1Cc2c(C3=C(Nc4ccccc4)C(=O)NC3=O)c3ccccc3n2C1
Response given: 1.4

Challenge: Request: IC50, test system Protein kinase C beta type (Homo sapiens, UniProt P05771), entry CNC[C@H]1Cc2c(C3=C(Nc4ccccc4)C(=O)NC3=O)c3ccccc3n2C1
Response given: 2.2

Challenge: Request: IC50, test system Protein kinase C beta type (Homo sapiens, UniProt P05771), entry O=C1NC(=O)C(c2c3n(c4ccccc24)CC[C@@H](CO)C3)=C1Nc1ccccc1
Response given: 17

Challenge: Request: IC50, test system Protein kinase C beta type (Homo sapiens, UniProt P05771), entry CN(C)C[C@@H]1Cc2c(C3=C(Nc4ccccc4)C(=O)NC3=O)c3ccccc3n2C1
Response given: 8

Challenge: Request: IC50, test system Protein kinase C beta type (Homo sapiens, UniProt P05771), entry O=C1NC(=O)C(c2c3n(c4ccccc24)CC[C@H](CO)C3)=C1Nc1ccccc1
Response given: 6
